test name: photoluminescence quantum yield (fraction); solvent given as SMILES
setup conditions: in CCCCCC
# photoluminescence quantum yield listing for each entry below
Format: numeric value only, no unit, no commentary.

Examples with their reported photoluminescence quantum yield follow.
- CC1(C)Cc2c(c3ccccc3c3nc4c5c(c6ccccc6c4nc23)OC(C)(C)C5)O1: 0.27
- COc1cc(OC)cc(C2=[O+][B-](F)(F)OC(c3ccc4cc(OC)ccc4c3)=C2)c1: 0.26
- CCCCCCC(CCCCCC)N1C(=O)c2cccc3c(-c4ccc(OC)cc4)ccc(c23)C1=O: 0.65
- O=c1oc2cc3ccccc3cc2nc1-c1ccccc1: 0.003
- Cc1c2ccccc2c(C2=C3C=CC=[N+]3[B-](F)(F)n3cccc32)c2ccccc12: 0.041

Record summary for "CC1=CC(C)=[N+]2C1=C(c1ccc3cccnc3n1)c1c(C)cc(C)n1[B-]2(F)F" : reported photoluminescence quantum yield = 0.08

Record summary for "CN(C)c1ccc(C#Cc2ccc3ccc4ccc(C#Cc5ccc(N(C)C)cc5)c5ccc2c3c45)cc1" : reported photoluminescence quantum yield = 0.632

Record summary for "CC1=CC(C)=[N+]2C1=Cc1c3ccccc3c(C#Cc3ccccc3)n1[B-]2(F)F" : reported photoluminescence quantum yield = 0.89

Record summary for "C(=C\c1ccc(Nc2ccccc2)cc1)/c1ccccc1" : reported photoluminescence quantum yield = 0.51

Record summary for "CCCCCCC(CCCCCC)n1c(=O)c2c3ccc4cccc5c6cccc7ccc(c2c1=O)c(c76)c3c45" : reported photoluminescence quantum yield = 0.32

----------
test name: photoluminescence quantum yield (fraction); solvent given as SMILES
setup conditions: in C1COCCO1
# photoluminescence quantum yield listing for each entry below
Format: numeric value only, no unit, no commentary.

Examples with their reported photoluminescence quantum yield follow.
- COc1ccc(OC)c(C=O)c1: 0.0001
- COc1ccc(/C=C/C=C/C2=NC3C(=O)NC(N)=NC3N2[C@H]2C[C@H](O)[C@@H](CO)O2)cc1 (stereo partly specified): 0.71
- c1ccc(-c2cc(-c3ccccc3)cc(-c3ccccc3)c2)cc1: 0.1

Record summary for "COc1ccc(C2=N/C(=C\c3ccccc3)C(=O)N2)cc1OC" : reported photoluminescence quantum yield = 0.034

Record summary for "CCCCNC(=O)c1nc2c(N(C)C)nc(N(C)C)nc2n1Cc1ccccc1" : reported photoluminescence quantum yield = 0.95

Record summary for "CN(C)c1cc(C#N)c(N(C)C)c(C#N)c1" : reported photoluminescence quantum yield = 0.55

----------
test name: photoluminescence quantum yield (fraction); solvent given as SMILES
setup conditions: in CO
Label Satisfied when photoluminescence quantum yield < 0.01; otherwise Not satisfied.

- C(/C=C/C1=[NH+]c2cccc3cccc1c23)=c1/[nH]c2cccc3cccc1c32: Satisfied
- c1ccc(-c2cc(-c3ccc(-c4nc(-c5ccccn5)c(-c5ccccn5)[nH]4)cc3)cc(-c3ccccn3)n2)nc1: Not satisfied
- COc1ccc(-n2c3ccccc3c3cc(C=C(C#N)C#N)ccc32)cc1: Not satisfied
- O=C1/C(=C\c2ccc3oc4ccccc4c3c2)S(=O)(=O)c2ccccc21: Not satisfied

Could you now look at the following molecule, please?
Identify whether the molecule "CCN(C)c1ccc(C2=C3C(C)=CC(C)=[N+]3[B-](F)(F)n3c(C)cc(C)c32)cc1" records photoluminescence quantum yield below 0.01.
Not satisfied

----------
test name: photoluminescence quantum yield (fraction); solvent given as SMILES
setup conditions: in CS(C)=O
observed property: photoluminescence quantum yield
Format: numeric value only, no unit, no commentary.

Examples with their reported photoluminescence quantum yield follow.
- c1ccc(-c2cc(-c3ccc(-c4nc(-c5ccccn5)c(-c5ccccn5)[nH]4)cc3)cc(-c3ccccn3)n2)nc1: 0.111
- CC(=O)c1ccc2ccc3c(NCCC(=O)NCCCCCCc4nc5c(=O)[nH]c(N)nc5n4[C@H]4C[C@H](O)[C@@H](CO)O4)ccc4ccc1c2c43: 0.61
- O=C1CCCC2=C1C(c1cccc(Cl)c1)c1c(c3ccccc3oc1=O)N2 (centres undefined): 0.6

# context switch: different compound, same photoluminescence quantum yield
Record summary for "CN(C)c1ccc2nc(-c3ccc(C(=O)Nc4ccccc4)cc3)sc2c1" : reported photoluminescence quantum yield = 0.99
